Give IC50 for every item shown.
assay_target: CCR2b (Homo sapiens, UniProt P41597)
Construct: host or cells: AequoScreen CCR2b cells
Sequence (P41597 1-360 isoform P41597-2): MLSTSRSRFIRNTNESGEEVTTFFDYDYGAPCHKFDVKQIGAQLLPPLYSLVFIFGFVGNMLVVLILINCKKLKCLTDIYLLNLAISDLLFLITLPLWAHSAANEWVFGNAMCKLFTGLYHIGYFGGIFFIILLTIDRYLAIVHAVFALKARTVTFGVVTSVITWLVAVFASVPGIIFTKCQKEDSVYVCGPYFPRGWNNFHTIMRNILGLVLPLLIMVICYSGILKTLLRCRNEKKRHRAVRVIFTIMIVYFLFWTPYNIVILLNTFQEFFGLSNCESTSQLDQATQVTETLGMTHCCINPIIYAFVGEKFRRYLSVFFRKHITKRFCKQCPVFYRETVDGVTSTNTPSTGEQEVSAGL
method_description: AequoScreen assay, Ca++ flux (antagonist mode against reference agonist MCP-1)
Assay type: cell-based
test_context: AequoScreen CCR2b (FAST-060A) cells; inhibition of reference agonist MCP-1 at its EC80
Structures can show the parent of a compound that is named as a salt.

stdin: Which value of IC50 has been reported for O=C(NCc1cc(C(F)(F)F)cc(C(F)(F)F)c1)C1(CC2CC2)CCN(Cc2ccc3nc[nH]c3c2)CC1 in the records?
stdout: > 1 µM

stdin: Fill in: IC50 of Cn1c(=O)ccc2ccc(CN3CCC(CC4CC4)(C(=O)NCc4cc(C(F)(F)F)cc(C(F)(F)F)c4)CC3)cc21 is ___
stdout: < 0.2 µM

stdin: May I ask what IC50 has been recorded for Cn1c(=O)oc2ccc(CN3CCC(CC4CC4)(C(=O)NCc4cc(C#N)cc(C(F)(F)F)c4)C3)cc21 (stereo not shown) [Example 24, HCl salt] ?
stdout: < 0.2 µM

stdin: Tell me the measured IC50 of Cn1c(=O)ccc2ccc(CN3CCC(CC4CC4)(C(=O)NCc4cc(C(F)(F)F)cc(C(F)(F)F)c4)C3)cc21 (stereo not shown) , please.
stdout: < 0.2 µM

stdin: Fill in: IC50 of O=C(NCc1cc(C(F)(F)F)cc(C(F)(F)F)c1)C1(CC2CC2)CCN(Cc2ccc3[nH]ncc3c2)C1 (stereo not shown) [Example 21, dihydrochloride] is ___
stdout: < 0.2 µM

stdin: What IC50 value was documented for this molecule, O=C1COc2ccc(CCN3CCC(CC4CC4)(C(=O)NCc4cc(C(F)(F)F)cc(C(F)(F)F)c4)CC3)cc2N1 ?
stdout: > 1 µM

stdin: Value lookup for IC50; key = COCC1(C(=O)N2CCN(c3cc(C(F)(F)F)ccn3)CC2)CCN(Cc2ccc3oc(=O)n(C)c3c2)C1 (stereo not shown)
stdout: 0.2 to 1 µM

----------
assay_target: CCR2b (Homo sapiens, UniProt P41597)
Construct: host or cells: AequoScreen CCR2b cells
method_description: AequoScreen assay, Ca++ flux (antagonist mode against reference agonist MCP-1)
Type: cell-based
test_context: AequoScreen CCR2b (FAST-060A) cells; inhibition of reference agonist MCP-1 at its EC80
Counter-ions that a name gives are not always drawn.
result_type: IC50

stdin: Need IC50 of COCC1(C(=O)N2CC(c3cc(C(F)(F)F)ccn3)C2)CCN(Cc2ccc3oc(=O)n(C)c3c2)C1 (stereo not shown) , thanks.
stdout: 0.2 to 1 µM

stdin: Given Cn1c(=O)ccc2ccc(CN3CCC(C(=O)NCc4cc(C(F)(F)F)cc(C(F)(F)F)c4)(C4CC4)CC3)cc21 , state its recorded IC50.
stdout: > 1 µM

stdin: Consider the molecule shown here: Cn1c(=O)ccc2ccc(CN3CCC(CC4CC4)(C(=O)NCc4cc(C#N)cc(C(F)(F)F)c4)C3)cc21 (stereo not shown) [Example 23, TFA salt] What is its recorded IC50?
stdout: < 0.2 µM

stdin: Sample O=C1COc2ccc(CN3CCC(CC4CC4)(C(=O)NCc4cc(C(F)(F)F)cc(C(F)(F)F)c4)CC3)cc2N1 — what was its IC50?
stdout: > 1 µM

Measured values drawn from patent US20100331298A1 for this set.
